Test: NFAT Signaling Pathway (AID 444);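 note: carbachol stimulus at about its EC50 of 1 µM final; % is set by controls: 0 for no effect and ±100 for the full control effect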
Details: Jurkat NFAT-bla M1, carbachol, beta-lactamase ratio, 5 h; at 7.69 µM (top of the series) unless noted
Records with an inconclusive call do not appear. Activity calls are given as the source filed them. Calls come from the whole dose curve; as a rule, active = well fitted curve in either direction with a large enough effect (not every such curve was filed as active); inconclusive = small, poorly fitted or top-dose-only effect, or another doubt; inactive = flat fitted curve, though single readings scatter.
property: activity change, negative = inhibition

[ask] Form field: reported activity change, negative = inhibition of "CN(C)Cc1cc(C(C)(C)C)cc(CNC2CCCCC2)c1O"
[reply] -20.6% (inactive)

[ask] Form field: reported activity change, negative = inhibition of "CCCCSCc1nc2nc(Cl)c(Cl)nc2[nH]1"
[reply] -24.8% (inactive)

[ask] Form field: reported activity change, negative = inhibition of "O=C(O)CSCCc1ccccc1"
[reply] -11.5% (inactive)

[ask] Form field: reported activity change, negative = inhibition of "O=C(O)[C@@H]1CCCN1Cc1cc2ccccc2c2ccccc12"
[reply] 17.3% (inactive)

[ask] Form field: reported activity change, negative = inhibition of "NS(=O)(=O)c1ccc(N=Nc2ccc(O)c(C(=O)O)c2)cc1"
[reply] -4.82% (inactive)

[ask] Form field: reported activity change, negative = inhibition of "CC(=O)O[C@H]1CC[C@@]2(C)C(=CC[C@@H]3[C@@H]4CC[C@H](c5cc(C(F)(F)F)n(C(C)=O)n5)[C@]4(C)CC[C@@H]32)C1"
[reply] 12.1% (inactive)

[ask] Form field: reported activity change, negative = inhibition of "CC[C@H](C)C(=O)O[C@@H]1CCC=C2C=C[C@H](C)[C@@H](CC[C@H]3C[C@@H](O)CC(=O)O3)[C@H]21"
[reply] 6.96% [at 38 µM] (inactive)

[ask] Form field: reported activity change, negative = inhibition of "CS(=O)(=O)N(CC(=O)O)Cc1ccccc1"
[reply] 14.9% (inactive)

[ask] Form field: reported activity change, negative = inhibition of "O=C(Nc1nn[nH]n1)c1nc(-c2ccccc2)cc(=O)[nH]1"
[reply] 0.574% (inactive)

[ask] Form field: reported activity change, negative = inhibition of "C/C(C[n+]1ccccc1)=N\N=C(N)N"
[reply] -14.3% (inactive)

[ask] Form field: reported activity change, negative = inhibition of "CC(C)[C@@H]1O[C@H](/C=C\c2ccccc2)OCC1(C)C"
[reply] 26.7% (inactive)

[ask] Form field: reported activity change, negative = inhibition of "O=S(=O)(O)c1ccc2c(N=Nc3c(O)ccc4ccccc34)cccc2c1"
[reply] -11.8% (inactive)

[ask] Form field: reported activity change, negative = inhibition of "C[N@+]1(CCC(=O)c2ccccc2)CC[C@H]2CC[C@H](C2)C1"
[reply] 3.4% (inactive)

====

Target: Mitogen-activated protein kinase 10 (Mus musculus)
Experiment: JNK3 AlphaScreen Assay (AID 530);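 note: kinase came from lysate of stimulated human HepG2 cells; signal reports phosphorylation of biotinylated GST-cJun 1-79 at Ser73 with 10 µM ATP; % is set by controls: 0 for no effect and ±100 for the full control effect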
Conditions: JNK3 lysate, c-Jun phosphorylation; series mostly up to 11.4 µM
Results filed as inconclusive are left out. The source made the active and inactive calls. The call rests on the fitted dose curve; in most records, active means well fitted curve in either direction with a large enough effect (not every such curve was filed as active); inconclusive means small, poorly fitted or top-dose-only effect, or another doubt; inactive means flat fitted curve, though single readings scatter.
property: outcome

Here is how some compounds turned out for outcome.
{"columns": ["molecule smiles", "tested system", "outcome"],
 "data": [
  ["NC(=O)NCCS[C@H]1CCCC[C@@H]1O", "Mitogen-activated protein kinase 10 (Mus musculus)", "inactive"],
  ["C=C1CCO[C@@]2([C@H](O)[C@@](C)(O)CO)NC(=O)[C@]1(O)NC2=O", "Mitogen-activated protein kinase 10 (Mus musculus)", "inactive"],
  ["Cc1cc(O)c(-c2cc(O)c(C)cc2O)cc1O", "Mitogen-activated protein kinase 10 (Mus musculus)", "inactive"],
  ["NC(=S)NCCC[C@@H](N)C(=O)O", "Mitogen-activated protein kinase 10 (Mus musculus)", "inactive"],
  ["N[C@@H](Cc1ccccc1)C(=O)O", "Mitogen-activated protein kinase 10 (Mus musculus)", "inactive"]
]}

Pending compound:
[ask] Form field: reported outcome of "Nc1nc(Cc2ccccc2)nc(Cc2ccccc2)c1-c1ccccc1"
[reply] inactive

====

Target: Lysosomal acid glucosylceramidase (Homo sapiens)
Experiment: Glucocerebrosidase-p2 (AID 348); note: potency is the fitted concentration of half-maximal effect
Settings: purified GBA, blue fluorogenic substrate, 40 min
Text: Beta-glucocerebrosidase catalyzes the hydrolysis of beta-glucocerebroside to glucose and ceramide. The inherited deficiency of beta-glucocerebrosidase results in Gaucher disease, which is characterized by a wide variety of symptoms including hepatosplenomegaly, anemia, thrombocytopenia, bony lesions and bone marrow infiltration with characteristic storage cells, known as Gaucher cells. […] Blue fluorescence substrate assay: […] Read the plate in Viewlux plate reader (Ex=365(10) and Em=440(10)).
Activity calls are given as the source filed them. No stated cut-off is given here; in the data, active means potency below about 10 µM; inactive means the rest.
Pick from Y = active, N = inactive when you respond.

Worked examples follow.
{"columns": ["compound", "tested system", "class"],
 "data": [
  ["COc1ncc2nc(-c3cc(F)cc(F)c3)c(=O)n(C[C@H]3CCCO3)c2n1", "Lysosomal acid glucosylceramidase (Homo sapiens)", "N"],
  ["c1ccc(SCCc2ccncc2)cc1", "Lysosomal acid glucosylceramidase (Homo sapiens)", "N"],
  ["CC1CCN(CC[S-])CC1.O.O.[Cl][Pt]", "Lysosomal acid glucosylceramidase (Homo sapiens)", "N"],
  ["NCCCc1c(-c2ccccc2)nc(N)[nH]c1=O", "Lysosomal acid glucosylceramidase (Homo sapiens)", "N"],
  ["NC(N)=NC[C@@H]1CCCCCCN1", "Lysosomal acid glucosylceramidase (Homo sapiens)", "N"]
]}

[ask] Can you look up the reported call for "O=c1[nH]c(=S)c2[nH]c(=O)n(-c3ccccc3)c2[nH]1" for me?
[reply] N

[ask] Can you look up the reported call for "COc1ccc2ccccc2c1/C=C\C(=O)c1ccccc1" for me?
[reply] N

[ask] Can you look up the reported call for "CC(C)C[C@@H](N)C(=O)Nc1ccc2ccccc2c1" for me?
[reply] N

[ask] Can you look up the reported call for "COCCn1c(=O)c(-c2cccc(C#N)c2)nc2cnc(N3CCNCC3)nc21" for me?
[reply] N

[ask] Can you look up the reported call for "Cn1c(=O)c2c(nc(C(=N)SCC(=O)O)n2C)n(C)c1=O" for me?
[reply] N

[ask] Can you look up the reported call for "Nc1nc(N)c2[nH]c(CNc3ccc(C(=O)O)cc3)nc2n1" for me?
[reply] N

[ask] Can you look up the reported call for "COc1ncc2nc(CCc3ccccc3)c(=O)n(C)c2n1" for me?
[reply] N

====

Target: Cytochrome P450 3A4 (Homo sapiens) (UniProt P08684)
Sequence (P08684 whole entry, looked up): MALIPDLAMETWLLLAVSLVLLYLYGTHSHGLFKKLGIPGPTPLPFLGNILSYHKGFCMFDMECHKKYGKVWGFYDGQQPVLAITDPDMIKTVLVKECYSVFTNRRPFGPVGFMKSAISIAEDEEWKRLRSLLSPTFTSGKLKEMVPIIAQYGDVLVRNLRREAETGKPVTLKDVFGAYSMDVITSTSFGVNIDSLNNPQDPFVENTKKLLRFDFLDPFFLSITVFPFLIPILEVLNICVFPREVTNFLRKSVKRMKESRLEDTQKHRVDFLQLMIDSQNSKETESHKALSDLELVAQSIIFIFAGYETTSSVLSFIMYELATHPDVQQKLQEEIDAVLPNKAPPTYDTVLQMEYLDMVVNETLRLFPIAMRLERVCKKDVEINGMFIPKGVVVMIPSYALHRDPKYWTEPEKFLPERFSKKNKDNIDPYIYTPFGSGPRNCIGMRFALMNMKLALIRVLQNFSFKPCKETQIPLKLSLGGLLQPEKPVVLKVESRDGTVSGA
Experiment: qHTS Assay for Activators of Cytochrome P450 3A4 (AID 885); note: nearly all actives have a fitted effect of over 65% in size
Conditions: recombinant CYP3A4, Luciferin-PPXE luminescence, 60 min; series mostly up to 11.4 µM
Activity calls are given as the source filed them. The call rests on the fitted dose curve; in most records, active means well fitted activation curve with a large enough effect; inconclusive means small, poorly fitted or top-dose-only effect; inactive means no such curve, though single readings can be large or run the other way.
Pick from t for active, f for inactive when you respond.

Worked examples follow.
{"columns": ["molecule smiles", "class"],
 "data": [
  ["C[C@@]12C(=O)OC(=O)[C@@]1(C)[C@H]1CC[C@@H]2O1", "f"],
  ["O=c1[nH]c(SCc2c(Cl)c(Cl)c(Cl)c(Cl)c2Cl)nc(=S)[nH]1", "f"],
  ["O=S(=O)(c1ccccc1)N1CCC[C@@]2(CCN(Cc3ccccc3)C2)C1", "f"],
  ["COc1ccc(C=Nc2c(O)ccc3ccccc23)cc1OC", "f"],
  ["COCCNc1nc(-c2ccc(C(=O)N(C)C)cc2)nc2ccccc12", "f"]
]}

[ask] Can you look up the reported call for "C/C=C1/C(=O)C[C@H]2[C@@H]3CCC4=CC(=O)CC[C@]4(C)[C@H]3CC[C@]12C" for me?
[reply] t

[ask] Can you look up the reported call for "C[C@@H](Cc1ccccc1)Nc1ncnc2c1ncn2[C@@H]1O[C@@H](CO)[C@H](O)[C@@H]1O" for me?
[reply] f

[ask] Can you look up the reported call for "O=C1O/C(=C\Br)CC[C@@H]1c1cccc2ccccc12" for me?
[reply] f

[ask] Can you look up the reported call for "CCCCC/C=C\C[C@H](O)/C=C\c1cccc(C[C@H](O)CCCCO)n1" for me?
[reply] f

[ask] Can you look up the reported call for "O=c1cnc2cnc(Oc3ccccc3)nc2n1Cc1ccc(F)cc1" for me?
[reply] f

====

Experiment: AP1 Signaling Pathway (AID 357);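 note: ME-180 reporter cells stimulated with EGF at its EC50 level; % is set by controls: 0 for no effect and ±100 for the full control effect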
Settings: ME-180 (cervical carcinoma) AP-1-bla reporter, EGF-induced, beta-lactamase ratio, 5 h; at 7.69 µM (top of the series) unless noted
Inconclusive results are not listed.
property: activity change, negative = inhibition (%)
# unit: % | format: bare number

Here is how some compounds turned out for activity change, negative = inhibition.
{"columns": ["molecule smiles", "activity change, negative = inhibition / %"],
 "data": [
  ["N#CCCn1c(=O)c(-c2cc(F)cc(F)c2)nc2cnc(Oc3cccc(Cl)c3)nc21", -12.5],
  ["c1ccc(CN2COc3c(ccc4c5c(ccc34)CN(Cc3ccccc3)CO5)C2)cc1", -0.336],
  ["N/C(CC/C(N)=N/O)=N\\O", -3.76],
  ["CN1CCc2ccccc2[C@@H]1Cc1ccccc1NC(=O)c1sc2ccccc2c1Cl", -4.19],
  ["O=C(O)[C@@H]1[C@@H](C(=O)NCc2ccccn2)[C@@H]2C=C[C@@H]1O2", -9.66]
]}

Pending compound:
[ask] Form field: reported activity change, negative = inhibition of "CSc1nc2cc(S(=O)(=O)N3CCCCC3)ccc2s1"
[reply] -19.7
